src = patent EP4039268A1

The following binders are listed with their measured Mean normalized OD values.
# Test target: T1, full-length trimeric SARS-CoV-2 Spike protein (Spike-H6) (SARS-CoV-2, N-glycosylated (22 N-glycosylation sites))
# T1 construct: also called trimeric Spike; full-length Spike-H6
# Measurement description: ELISA screen
Express it in OD; write the number only.

Examples with their reported Mean normalized OD follow.
Binder	Unit symbol	Mean normalized OD
Cd302 CRD-mouse IgG2a-Fc fusion protein (Fc fusion) FQGSCYAFLQVTINVENIEDVRKQCTDHGADMVSIHNEEENAFILDTLQKRWKGPDDLLLGMFYDTDDATFKWYDHSNMTFDKWADQDGEDLVDTCGFLYTKTGEWRKGDCEISSVEGTLGGGSGGGSGGGS	OD	-0.002
Klrd1 CRD-mouse IgG2a-Fc fusion protein (Fc fusion) HQCNCYFISKEEKSWKRSRDFCASQNSSLLQPQSRNELSFMNFSQTFFWIGMHYSEKRNAWLWEDGTVPSKDLFPEFSVIRPEHCIVYSPSKSVSAESCENKNRYICKGGGSGGGSGGGS	OD	0.003
Cd22 CRD-mouse IgG2a-Fc fusion protein (Fc fusion) SANDWTVDHPQTLFAWEGACIRIPCKYKTPLPKARLDNILLFQNYEFDKATKKFTGTVLYNATKTEKDPESELYLSKQGRVTFLGNRIDNCTLKIHPIRANDSGNLGLRMTAGTERWMEPIHLNVSEGGGSGGGSGGGS	OD	0.027
Atrnl1 CRD-mouse IgG2a-Fc fusion protein (Fc fusion) VGDACLRINSSRESYDNAKLYCYNLSGNLASLTTSKEVEFVLDEIQKFTQQKVSPWVGLRKINISYWGWEDMSPFTNTSLQWLPGEPNDSGFCAYLERAAVAGLKANPCTSMADGLVCEGGGSGGGSGGGS	OD	0.001
Atrn CRD-mouse IgG2a-Fc fusion protein (Fc fusion) VGNSCLKITTAKENYDNAKLSCRNHNAFLASLTSQKKVEFVLKQLRLMQSSQSMSKLTLTPWVGLRKINVSYWCWEDMSPFTNSLLQWMPSEPSDAGFCGILSEPSTRGLKAATCINPLNGSVCEGGGSGGGSGGGS	OD	0.002
Mrc2_7 CRD-mouse IgG2a-Fc fusion protein (Fc fusion) YLNHTFRLLQKPLRWKDALLLCESRNASLAHVPDPYTQAFLTQAARGLQTPLWIGLASEEGSRRYSWLSEEPLNYVSWQDEEPQHSGGCAYVDVDGTWRTTSCDTKLQGAVCGGGSGGGSGGGS	OD	0.002

Incoming: Suppose we examine the binder Thbd CRD-mouse IgG2a-Fc fusion protein (Fc fusion) VEHECFALFQGPATFLDASQACQRLQGHLMTVRSSVAADVISLLLSQSSMDLGPWIGLQLPQGCDDPVHLGPLRGFQWVTGDNHTSYSRWARPNDQTAPLCGPLCVTVSTATEAAPGEPAWEEKPCETETQGFLCEFGGGSGGGSGGGS ; what Mean normalized OD value has been reported?
Outgoing: 0.003
